In this section we review reported EC50 values for a set of compounds.
- system: GLP-1R (Homo sapiens)
- Construct: host or cells: GLP-1R CRE-bla CHO-K1 cells
- Sequence (P43220 24-463): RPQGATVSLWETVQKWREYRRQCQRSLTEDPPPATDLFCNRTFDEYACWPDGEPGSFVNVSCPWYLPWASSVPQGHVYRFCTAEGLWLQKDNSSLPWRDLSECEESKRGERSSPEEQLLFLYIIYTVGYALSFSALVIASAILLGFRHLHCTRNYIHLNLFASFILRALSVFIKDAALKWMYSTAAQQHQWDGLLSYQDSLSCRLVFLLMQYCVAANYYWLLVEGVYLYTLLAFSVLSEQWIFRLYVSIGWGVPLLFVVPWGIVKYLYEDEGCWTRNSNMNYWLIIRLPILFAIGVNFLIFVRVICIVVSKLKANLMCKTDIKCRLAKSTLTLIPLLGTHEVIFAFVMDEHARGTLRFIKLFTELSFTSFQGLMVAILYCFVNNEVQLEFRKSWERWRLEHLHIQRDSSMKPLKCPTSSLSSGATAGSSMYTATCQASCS
- Sequence (P01275 100-127 partner limits assumed): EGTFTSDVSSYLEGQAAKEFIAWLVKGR
- test.protocol: EC20 GLP-1(9-36) PAM cAMP assay: dose response of compound in the presence of fixed concentration of GLP-1(9-36)
- Type: cell-based
- run.conditions: dose response of compound in presence of fixed concentration of GLP-1(9-36), GLP-1R CRE-bla CHO-K1 cells, read-out: EC20 GLP-1(9-36) PAM EC50
recorded.metric: EC50

[[record]]
compound = "CCCCCCOCC1CCN(c2cnc(-c3ccc(C[C@H](NC(=O)c4ccc(C(C)(C)C)cc4)C(=O)NCCC(=O)O)cc3)nc2)CC1"
recorded_metric = "EC50"
observed_value = "5 to 10 µM"

[[record]]
compound = "CCOc1ccc(-c2cnc(-c3ccc(C[C@H](NC(=O)c4ccc(C(C)(C)C)s4)C(=O)N[C@H](C)C(=O)O)cc3)nc2)cc1"
recorded_metric = "EC50"
observed_value = "2.5 to 5 µM"

[[record]]
compound = "CCCCCOc1ccc(-c2cnc(-c3ccc(C[C@H](NC(=O)c4ccc(C(C)(C)C)s4)C(=O)N4CC[C@H](C(=O)O)C4)cc3)nc2)cc1"
recorded_metric = "EC50"
observed_value = "5 to 10 µM"

[[record]]
compound = "Cc1ccc(-c2ccc(-c3cnc(-c4ccc(C[C@H](NC(=O)c5ccc(C(C)(C)C)s5)C(=O)N[C@H](C)C(=O)O)cc4)nc3)cc2F)cc1"
recorded_metric = "EC50"
observed_value = "< 0.8 µM"

[[record]]
compound = "CCCCCCCOc1ccc(-c2cnc(-c3ccc(C[C@H](NC(=O)c4ccc(CC)s4)C(=O)N4CC(C(=O)O)C4)cc3)nc2)cc1"
recorded_metric = "EC50"
observed_value = "0.8 to 2.5 µM"

[[record]]
compound = "CC1CCC(c2ccc(-c3cnc(-c4ccc(C[C@H](NC(=O)c5ccc(C(C)(C)C)s5)C(=O)N[C@H](C)C(=O)O)cc4)nc3)cc2)CC1 (stereo partly drawn)"
recorded_metric = "EC50"
observed_value = "< 0.8 µM"

